Below, each of the compounds is paired with its reported EC50 value.
- measured-target: His-tagged p53-Y220C DNA binding domain (Homo sapiens, UniProt P04637, Y220C)
- test: Biochemical p53-Y220C and DNA binding assay (HTRF)
- assay-conditions: inflection point of 10 points dose titration, 4 parameter curve fit; p53-Y220C DBD 100 nM, biotinylated dsDNA 200 nM, 27 to 29° C.; read-out: HTRF IP
- Description: Biological Example 1. Biochemical p53-Y220C and DNA Binding Assay The compounds of this invention can bind to p53-Y220C and increase the ability of the mutant p53 to bind to DNA at higher temperatures. […] The plate was read using Envision multimode plate reader. […] 10 points dose titration curves for each compound were analyzed by 4 parameter curve fit and inflection point (IP) was reported. […]
parameter: EC50

>>> result("O=C1CCC(CO/N=C/c2sc3c(N[C@@H]4CNC[C@@H]4F)cccc3c2CC(F)(F)F)N1 (stereo partly shown)")
"0.1 to 1 µM"
>>> result("OC1(CO/N=C/c2sc3c(N[C@@H]4CNC[C@@H]4F)cccc3c2CC(F)(F)F)CCCOC1 (stereo partly shown)")
"0.1 to 1 µM"
>>> result("CN1CC[C@@H](Nc2cccc3c2cc(/C=N/Oc2ccccc2)n3CC(F)(F)F)[C@@H](F)C1")
"> 1 µM"
>>> result("O=C1NC(CO/N=C/c2sc3c(N[C@@H]4CNC[C@@H]4F)cccc3c2CC(F)(F)F)CO1 (stereo partly shown)")
"0.1 to 1 µM"
>>> result("CN1CC[C@@H](Nc2cccc3c(CC(F)(F)F)c(/C=N/OCc4cccc(=O)[nH]4)sc23)[C@@H](F)C1")
"< 0.1 µM"
>>> result("CN1CC[C@@H](Nc2cccc3c2cc(/C=N/OCc2ccccc2)n3CC(F)(F)F)[C@@H](F)C1")
"> 1 µM"
>>> result("OC1(CO/N=C\\c2sc3c(N[C@@H]4CNC[C@@H]4F)cccc3c2CC(F)(F)F)CCCCC1")
"> 1 µM"

====

- measured-target: His-tagged p53-Y220C DNA binding domain (Homo sapiens, UniProt P04637, Y220C)
- test: Biochemical p53-Y220C and DNA binding assay (HTRF)
- assay-conditions: inflection point of 10 points dose titration, 4 parameter curve fit; p53-Y220C DBD 100 nM, biotinylated dsDNA 200 nM, 27 to 29° C.; read-out: HTRF IP
parameter: EC50

>>> result("CN1CC[C@@H](Nc2cccc3c(CC(F)(F)F)c(/C=N/OCc4cccc(=O)n4C)sc23)[C@@H](F)C1 [Example 2-29]")
"100 to 1000 nM"
>>> result("O=C(OCc1ccccc1)N1CCC(O)(CO/N=C/c2sc3c(N[C@@H]4CNC[C@@H]4F)cccc3c2CC(F)(F)F)CC1 [Example 1-25]")
"> 1000 nM"
>>> result("CN1CC[C@@H](Nc2cccc3c(CC(F)(F)F)c(/C=C/C(O)c4cnn5ccccc45)sc23)[C@@H](F)C1 (stereo partly shown) [Example 5-6]")
"100 to 1000 nM"
>>> result("COc1cc(S(C)(=O)=O)ccc1NC/C=C/c1sc2c(N[C@@H]3CCN(C)C[C@@H]3F)cccc2c1CC(F)(F)F [Example 7-2]")
"< 100 nM"
>>> result("CC[C@H](O)CO/N=C/c1sc2c(N[C@@H]3CNC[C@@H]3F)cccc2c1CC(F)(F)F [Example 1-3]")
"100 to 1000 nM"
>>> result("OC1(CO/N=C/c2sc3c(N[C@@H]4CNC[C@@H]4F)cccc3c2CC(F)(F)F)CCCC1 [Example 1-14]")
"100 to 1000 nM"
>>> result("CN1CC[C@@H](Nc2cccc3c2cc(/C=N/OCC2CC2)n3CC(F)(F)F)[C@@H](F)C1 [Example 2-1]")
"> 1000 nM"

Origin of measurements: patent US20250120961A1
